- TESTED_ON: IgE-Tb / soluble IgE receptor FcεRIα with a Y131A mutation (Homo sapiens, UniProt P01854, N146Q/N252Q)
- Construct: fused on or other part: Terbium chelate (LanthaScreen amine-reactive) on IgE-Fc; Alexa Fluor 488 hydrazide on the oxidised glycans of sFcεRIα; Both are labels and no part of the key
- Sequence (P01854 104-427 N146Q/N252Q): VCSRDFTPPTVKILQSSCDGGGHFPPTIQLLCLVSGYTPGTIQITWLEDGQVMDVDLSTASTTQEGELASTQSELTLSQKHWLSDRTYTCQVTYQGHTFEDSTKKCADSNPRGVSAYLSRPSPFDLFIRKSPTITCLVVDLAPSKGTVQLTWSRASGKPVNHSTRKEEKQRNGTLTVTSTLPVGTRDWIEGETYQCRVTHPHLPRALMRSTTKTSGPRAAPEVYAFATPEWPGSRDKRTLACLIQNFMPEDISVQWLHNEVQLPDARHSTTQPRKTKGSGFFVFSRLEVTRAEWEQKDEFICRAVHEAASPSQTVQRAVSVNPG
- Sequence (P12319 26-201 Y156A partner): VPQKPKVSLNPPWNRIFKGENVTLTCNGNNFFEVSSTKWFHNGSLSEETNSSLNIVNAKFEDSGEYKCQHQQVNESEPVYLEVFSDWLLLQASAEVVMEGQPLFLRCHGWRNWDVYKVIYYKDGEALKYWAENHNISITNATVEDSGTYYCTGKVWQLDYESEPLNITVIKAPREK
- PROTOCOL_SUMMARY: in vitro FRET assay: binding of IgE-Tb to receptor FcεRIα-Y131A-AF488 and its inhibition by compounds
- CONDITION: 5 nM IgE-Tb, 25 nM FcεRIα-Y131A-AF488, 2 hours at room temperature; read-out: FRET IC50 range
pIC50: −log10 of the molar value.
pIC50 values by entry

Consider the worked cases shown below.
COMPOUND	pIC50
Cc1ccc(S(=O)(=O)c2cncc(N[C@@H]3Cc4cc5cnc(C6CC6)cc5c(S(=O)(=O)NCC(C)(C)F)c4C3)c2)cn1	7.30 to 8.00
CC(C)CNS(=O)(=O)c1c2c(cc3cnc(C4CC4)cc13)CC1(c3ncc(-c4cccnc4)[nH]3)CC21 (stereo not shown)	7.30 to 8.00
CC(C)(F)CNS(=O)(=O)c1c2c(cc3cnc(C4CC4)cc13)CN(Cc1ccn[nH]1)C2	5.70 to 7.00

Request the reported pIC50 associated with "Cc1nnc(-c2ccc(N[C@@H]3Cc4cc5cnc(C6CC6)cc5c(S(=O)(=O)NCC(C)(C)F)c4C3)cn2)o1"
8.00 to 9.00

And for Cn1nnc(-c2ccc(N[C@@H]3Cc4cc5cnc(C6CC6)cc5c(S(=O)(=O)NC5CC(F)C5)c4C3)cn2)n1 (stereo partly shown) ?
8.00 to 9.00

And for "CC(C)(F)CNS(=O)(=O)c1c2c(cc3cnc(C4CC4)cc13)C[C@@H](Nc1ccc(C(N)=O)nc1)C2" ?
7.30 to 8.00

And for "Cn1ccc(Oc2ccncc2N[C@@H]2Cc3cc4cnc(C5CC5)cc4c(S(=O)(=O)NCC(C)(C)F)c3C2)n1" ?
7.00 to 7.30

And for "CCNC(=O)N1Cc2cc3cnc(C4CC4)cc3c(S(=O)(=O)NCC(C)C)c2C1" ?
5.70 to 7.00

And for "Cc1nc(-c2ccc(N[C@@H]3Cc4cc5cnc(C6CC6)cc5c(S(=O)(=O)NCC(C)(C)F)c4C3)cn2)no1" ?
8.00 to 9.00

And for "Cc1ccc2c(C(=O)N[C@@H]3Cc4cc5cnc(C6CC6)cc5c(S(=O)(=O)NCC(C)(C)F)c4C3)c[nH]c2c1" ?
7.30 to 8.00

And for "Cn1nnc(-c2ccc(N[C@@H]3Cc4cc5cnc(C6CC6)cc5c(S(=O)(=O)NCC(C)(C)F)c4C3)cc2)n1" ?
7.00 to 7.30

And for CC(C)CNS(=O)(=O)c1c2c(cc3cnc(C4CC4)cc13)C[C@H](Nc1nncn1-c1cccnc1)C2 (single isomer, unassigned) ?
7.30 to 8.00

And for "CC(C)(F)CNS(=O)(=O)c1c2c(cc3cnc(C4CC4)cc13)C[C@@H](Nc1ccc(C3(O)COC3)nc1)C2" ?
7.30 to 8.00

And for "CC(C)(F)CNS(=O)(=O)c1c2c(cc3cnc(C4CC4)cc13)C[C@@H](Nc1ccc(C(=O)O)nc1)C2" ?
7.30 to 8.00

And for COc1ccc(NC2Cc3cc4cnc(C5CC5)cc4c(S(=O)(=O)NCC(C)(C)F)c3C2)nn1 (stereo not shown) ?
7.30 to 8.00

And for "CC(C)(F)CNS(=O)(=O)c1c2c(cc3cnc(C4CC4)cc13)C[C@@H](Nc1cnc(-c3nnn[nH]3)nc1)C2" ?
7.30 to 8.00

Where these numbers come from: patent US12577228B2
